B1: tRNA (parent)
chain: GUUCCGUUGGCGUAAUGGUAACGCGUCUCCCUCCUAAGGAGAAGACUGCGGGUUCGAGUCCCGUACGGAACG

Variants of: B1
Experiment: yeast fitness relative to wild type (ratio to wild type); higher = fitter; tRNA-Arg(CCU), competitive growth, 37 C, YPD
Fewer inactive variants are shown than the library holds.
Listing: yeast fitness of selected variants
measured_quantity: yeast fitness

>>> result("U2G C34U")
0.616
>>> result("U19G A42U C55U")
0.692
>>> result("A57U G58C")
0.636
>>> result("G44A G58C")
0.911
>>> result("A14C C34G A57U")
0.518
>>> result("C11U A43U A70U")
0.764
>>> result("G12A A15G A70U")
0.682
>>> result("C5G G12C C49U")
0.584
>>> result("C30G G39C")
0.579
>>> result("C24G G25C A45G C60A")
0.617
>>> result("C11U C33G A65C")
0.694
>>> result("U3C A14U")
0.639
>>> result("U32C A43C A65U")
0.503
>>> result("A15G C49U A69U")
0.8
>>> result("C34A A43U A70U")
0.607
>>> result("C30A C31U A45C")
0.663
>>> result("A21G G38C")
0.674
>>> result("C33U G44C C49U")
0.531
>>> result("A20G C46U")
0.942
>>> result("C24U A42U A43C A57C C60A")
0.637
>>> result("G9A A45U U64C")
0.57
>>> result("C22A G67U")
0.774
>>> result("G12A C29A A45U")
0.531
>>> result("C46A U59C")
0.898
>>> result("U19A G67U")
0.974
>>> result("C29G G68C")
0.595
>>> result("C24A A37U")
0.579
>>> result("U2G G25A")
0.986
>>> result("G63A G67C")
0.707
>>> result("A40G G44A U47C")
0.571
>>> result("U19C C22G A65U")
0.547
>>> result("C31U A40U A45U")
0.618
>>> result("G18A C30U C55A")
0.592
>>> result("C27U A37U C49U")
0.549
>>> result("G12A C34G")
0.644
>>> result("G6C A65C")
0.872
>>> result("U7G C49G")
0.729
>>> result("U2A G17A A45G")
0.587
>>> result("A21G G67A")
0.956
>>> result("U8G G12A U13G C22G C24G A36G A37C A57U G68C")
0.589
>>> result("C24A C31A")
0.603
>>> result("A21C C34G A36G C46A")
0.586
